Cited source: ChEMBL document CHEMBL1201862

- Test system: CCRF-CEM
- EXPERIMENTAL PROTOCOL: NCI tumour cell line growth inhibition, 48 h
The source made the active and inactive calls. Cut-off read from the data, not from the text of the source: active = GI50 up to about 1.1 µM and inactive = higher.
Form entry, call: pick from TRUE = active, FALSE = inactive

Fill in: this test's call for Clc1ccc(/C=C/c2nc(-c3ccccc3)cn3c2nc2ccccc23)cc1Cl is ___
FALSE

GET /call?item= O=c1[nH]c2ccc(CC(=S)N3CCOCC3)cc2o1 returns the recorded outcome of this test.
FALSE

In this assay, the call recorded for Cc1nc(C(N)=S)sc1C(=O)/C=C/c1c(O)ccc2ccccc12 was what?
FALSE

GET /call?item= CC(=O)OCC(OC(C)=O)C(OC(C)=O)C(OC(C)=O)C(=O)CNn1c(-c2ccccc2)nc2ccc(Br)cc2c1=O (stereo not drawn) returns the recorded outcome of this test.
FALSE

Name the outcome recorded for CC12c3c4ccc(C=O)c3Oc3ccc(C=O)c(c31)Oc1ccc(C=O)c(c12)O4 in the assay.
FALSE

For O=C(CCc1ccc(O)cc1)NCCc1cccc(O)c1 , what call appears in the results of this test?
FALSE

Identify the outcome logged in this assay for the compound shown: O=C(Nc1nccs1)c1c(O)nc2sccn2c1=O
FALSE

Answer briefly: the call reported for COc1ccc(/C=C/c2nnc(S)[nH]2)cc1 in this assay.
FALSE

Recorded test outcome, item O/N=C1/C(=C/c2ccc(Br)cc2)CCCC1C(NO)c1ccc(Br)cc1 (stereo not drawn)
FALSE

Call for entry COc1ccc(C2=NOP(c3ccccc3)(c3ccccc3)(c3ccccc3)C2)cc1 :
FALSE

Identify the outcome logged in this assay for the compound shown: COC(=O)Oc1nn(C(=O)OC)c(=O)c2ccccc12
FALSE

Each compound tested received a call. Report the one for CN(CCc1ccc(Cl)c(Cl)c1)CCN(C)CCN1CCCC1 .
FALSE

For CCCCCCc1cc2cc(-c3cn4c(n3)sc3ccccc34)c(=O)oc2cc1O , which call appears in the assay record?
FALSE

Hi, do you know how N#Cc1c(N2CCCC2)ncn(-c2ccccc2)c1=S came out in this test?
FALSE

Outcome logged for CC1(C)CC(C2CC(C)(C)CC(C)(C)[C@H]2O)[C@@H](O)C(C)(C)C1 (stereo partly drawn) in this assay:
FALSE

Recorded test outcome, item S=C(NCc1ccccc1)N/N=C/c1ccccn1
TRUE

Any idea what this test logged for CC(C)(C)OC(=O)N1CCC2(C)CC(=O)CC=C12 (stereo not drawn) ?
FALSE

Give the logged outcome of this assay for the following compound: COc1ccc(-n2c3c(c4c(CN(C)C)c(O)ccc42)C(=O)c2ccccc2C3=O)cc1
FALSE

Tell me the assay call for COc1ccc(C[C@H]2COC(=O)[C@@H]2Cc2cccc(Br)c2)cc1OC please.
FALSE

Returns: the outcome recorded for CN(C)CCn1nc(N)c2nc3cc(C(F)(F)F)ccc3nc21 in this assay.
FALSE

For CC1CSC(=S)N1C(=O)N1C(=S)SCC1C (stereo not drawn) , which call appears in the assay record?
FALSE

Fill in: this test's call for c1ccc(COc2cccc3ccc[n+](Cc4ccccc4)c23)cc1 is ___
FALSE

Just curious, what result did Nc1nc(NCc2ccccc2)cc(NCc2ccccc2)n1 get here?
FALSE

Dear colleague, could you share the recorded outcome for Cc1ccc2c(c1)CN(C(=O)CCC(=O)OCc1ccccc1)c1ccc(C)cc1CN2C(=O)CCC(=O)OCc1ccccc1 when you have a moment?
FALSE

Please indicate how the test categorized COc1ccc(C(=O)/C=C/c2ccc(OCCSCCCCCCCCCCSCCOc3ccc(/C=C/C(=O)c4ccc(OC)cc4)cc3)cc2)cc1 .
FALSE

Call for entry NC(CP(=O)(O)O)C(=O)O (stereo not drawn) :
FALSE

Could you kindly confirm the outcome this assay logged for O=C1NC(N2CCOCC2)=N/C1=C\c1ccc(Cl)cc1 ?
FALSE

# outcome recorded in this test, key = O=C(Nc1ccc(Cl)cc1C(F)(F)F)C(=O)Nn1c(S)nc2ccccc2c1=O
FALSE

Give the logged outcome of this assay for the following compound: CC(C)=CCC/C(C)=C/CC/C(C)=C/C(O)c1ccccc1 (stereo not drawn)
FALSE

Recorded test outcome, item O=C1c2cn[nH]c2N=C(Nc2ccccc2)C1/N=C/c1ccc([N+](=O)[O-])cc1 (stereo not drawn)
FALSE

Query: recorded result category for Oc1c(CN2CCN(c3ccccc3)CC2)cc(Br)c2cccnc12 in this test
TRUE

What was the test verdict on O=C1c2ccncc2C(=O)c2c(O)ccc(O)c21 ?
FALSE

Give the logged outcome of this assay for the following compound: N#Cc1[nH]c(=O)n(-c2cccc3ccccc23)c1N
FALSE

Would you mind telling me which call this test gave Cc1ccc2c(c1C)C(=O)/C(=C/c1cccc(C)c1C(=O)O)C2 ?
FALSE

Can you look up the reported call for COc1ccc(/C=C2\C(=O)N(C)C(=O)c3cc(OC)c(OC)cc32)cc1OC for me?
FALSE

# fetch the recorded call for COc1ccc(C(C#N)NNc2nc(C)cc(O)n2)cc1OC (stereo not drawn) here
FALSE

So what was the verdict on COc1oc(C2C/C(=C/C(C)=C/C(C)=C/C(C)=C/c3ccc([N+](=O)[O-])cc3)CO2)c(C)c(=O)c1C (stereo not drawn) in this test?
FALSE

Which result was noted for this compound in the test: O=[N+]([O-])CCc1cccc([N+](=O)[O-])c1
FALSE

Given Cc1c(C#N)c2ccccc2c2nc3ccccc3n12 , state the outcome it received in this test.
FALSE

Can you look up the reported call for CC(C)=CCNc1nc(Cl)nc2[nH]cnc12 for me?
FALSE

# outcome recorded in this test, key = COc1ccc(C2CC(c3c(C)nn(-c4ccccc4)c3-c3ccc(C)cc3O)=NN2c2ccccc2)cc1 (stereo not drawn)
FALSE

// param item: Nc1c(-c2ccccc2-c2c(N)[n+]([O-])c3ccccc3[n+]2[O-])[n+]([O-])c2ccccc2[n+]1[O-] ; yields the recorded call
FALSE

Can you look up the reported call for CC1SC2=NC3=C(c4ccccc4C3=O)C(c3ccccc3Cl)N2C1=O (stereo not drawn) for me?
FALSE

* * *

- System: UO-31
- EXPERIMENTAL PROTOCOL: NCI tumour cell line growth inhibition, 48 h
Active and inactive are the calls of the source. No stated cut-off is given here; in the data, active = GI50 up to about 1.1 µM and inactive = higher.
Assign a class; possible classes are yes (active), no (inactive)

Answer briefly: the call reported for CN1CN(c2ccccc2)C2(CCN(CCCC3(c4cccs4)OCCO3)CC2)C1=O in this assay.
no

# lookup: test call for O=C1CCSC2=C1SCc1sccc12
no

Outcome logged for CCCCNC(=S)c1ccc(OC(=O)Nc2ccc(Cl)cc2)cc1 in this assay:
no

Hi, sorry to bother you, what did the test record for Nc1nc(NC2C=C(CO)C(O)C2O)c([N+](=O)[O-])c(=O)[nH]1 (configuration not stated) ?
no

Please let me know the test result on file for CC(=O)c1c2n(n(-c3ccccc3)c1=O)C(=O)c1nccnc1-2 .
no

Outcome? CC1SC2=NC3=C(c4ccccc4C3=O)C(c3ccccc3Cl)N2C1=O (configuration not stated)
no

Outcome? O=C(O)c1cccc2cccc(-c3cccc4cccc(C(=O)O)c34)c12
no

Record lookup: outcome of this test for NC(=O)CN(CC(N)=O)C(N)=O ?
no

Could you check what this test reported for COc1ccc2cc(C(=O)NCCCNC(=O)c3ccc4cc(OC)ccc4c3)ccc2c1 ?
no

// outcome(item) with item = COc1ccc(CC2c3cc4c(cc3CCN2C)OCO4)c(C=O)c1OC (configuration not stated)
no

Name the outcome recorded for O=S(=O)(/C=C/CS(=O)(=O)c1ccccc1)c1ccccc1 in the assay.
no

Outcome? Cc1cc(C)c2c(O)cc(-c3cccc4ccccc34)nc2n1
no

What call does the record list for CCOC(=S)SC/C(=N\OC(C)(C)OC)c1ccccc1 ?
no

What was the test verdict on CC1=CC(=O)c2cccc(O)c2C1=O ?
no

Call for entry O=C(CP(=O)(O)O)c1cccs1 :
no

Please indicate how the test categorized C=CCCCCNC(=O)C[C@@H]1C2=C(CC[C@H]1O[Si](C)(C)C(C)(C)C)N1C(=O)CCC/C=C\C1C2 (some centres not stated) .
no

What outcome does the record of this test show for NC(=O)c1ncn2c(=O)n(CCCl)nnc12 [MITOZOLOMIDE] ?
no

For Oc1c(CN2CCN(c3ccccc3)CC2)cc(Br)c2cccnc12 , what call appears in the results of this test?
yes

Please indicate how the test categorized O=C1CCCC/C1=C/C=C/c1ccccc1 .
no

Outcome? COc1ccc(/N=C2\C(=N/c3ccc(OC)cc3)N(S(=O)(=O)c3ccccc3)C(=S)N2c2ccc(OC)cc2)cc1
no

Assay result, entry NNC(=O)CS(=O)(=O)Nc1ncccn1 — outcome?
no

Recorded call for CC(C)N1[C@@H]2CCCC[C@H]2N(C(C)C)[PH]1=O ?
no

What did the test return for Nc1ccc2nc(-c3ccccn3)c(-c3ccccn3)nc2c1 ?
no

Per the assay record, what outcome was assigned to CN1C(=O)N(C)C2(CCN(CC(CC3OCCO3)c3ccc(F)cc3)CC2)C1=O (configuration not stated) ?
no

Outcome logged for CN(CCc1ccc(N)cc1)[C@H]1CCCC[C@H]1N1CCCC1 in this assay:
no

What call does the record list for CNC(=O)OCC1=C(COC(=O)NC)C(C)N(c2ccc(OC)cc2)C1 (configuration not stated) ?
no

Record lookup: outcome of this test for C[C@H]1O[C@@H](O[C@H]2[C@@H](O)C[C@H](O[C@H]3[C@@H](O)C[C@H](O[C@H]4CC[C@@]5(C)[C@H](CC[C@@H]6[C@@H]5CC[C@]5(C)[C@@H](C7=CC(=O)OC7)[C@@H](O)C[C@]65O)C4)O[C@@H]3C)O[C@@H]2C)C[C@H](O)[C@@H]1O ?
yes

I'd appreciate the recorded outcome for NS(=O)(=O)c1ccc(/N=N/c2ccc(O)c(C(=O)O)c2)cc1 [SALAZOSULFAMIDE] from this test.
no

Dear all, I need the recorded test outcome for O=[N+]([O-])c1ccc(-c2nc3ccccc3o2)cc1 , thank you.
no

Assay outcome for CC(=O)OC1CCC2(C)C(=CC(C3C=C4CC(OC(C)=O)CCC4(C)C4=C3C3CC5OC6(CCC(C)CO6)C(C)C5C3(C)CC4)C3=C2CCC2(C)C3CC3OC4(CCC(C)CO4)C(C)C32)C1 (configuration not stated) : what was it?
no

Name the outcome recorded for O=C(Cc1ccc(Cl)c(Cl)c1)NCCCN1CCN(CCCN2CCCCC2)CC1 in the assay.
no

Recorded call for CCOC(=O)C(C[Si](C)(C)C)P(=O)(OCC)OCC (configuration not stated) ?
no

What did the test return for CC(=O)NNc1nc(C)c(C(=O)/C=C/c2ccc(N(C)C)cc2)s1 ?
no

Name the outcome recorded for COc1ccc(C[C@H]2COC(=O)[C@@H]2Cc2cccc(Br)c2)cc1OC in the assay.
no

What classification did CCCCCCCCCCCCCCCCCCOCC(C[N+]1(C)CCC(O)CC1)OCC (configuration not stated) end up with in this test?
no

Write down the call the test reported for this molecule. Item: CCOC(=O)N(NC(=O)NC(C)C)c1ccccc1
no

Hey, what did the test say about Oc1ccccc1-c1nnc(S)n1/N=C/c1ccc(-c2ccc(Br)cc2)o1 ?
no

I would be grateful if you could indicate the recorded call for c1ccc2sc(C3(N4CCC5(CC4)OCCO5)CCCCC3)cc2c1 .
no

So what was the verdict on N#CC1C[C@@H]2CC3(CCC2CN1C(=O)c1ccccc1)OCCO3 (some centres not stated) in this test?
no

Dear colleague, could you share the recorded outcome for CCOC(=O)/C=C/c1ccccn1 when you have a moment?
no

Call for entry C1=CCN(c2ccccc2)CC1 :
no

Each molecule tested received a call. Report the one for COc1ccc(C2=C(Cl)c3cc(OC)c(OC)cc3C2Cl)cc1OC (configuration not stated) .
no
